Data origin, for the record: a melting point compilation (Tetko et al.; mined from patent text by program, amines drawn as free bases though some values may be those of a salt)

# reported melting point; entries follow
value kind: melting point

> print(dat)
                                   molecule         result
1  CCC(=O)OC1(c2ccccc2)CCN(CCN2CNC(=O)c3ccccc32)CC1  141 to 144 °C
2      Cn1c(C(F)(F)F)ccc(-c2ccc(F)cc2F)c1=O  123 to 124 °C
3  CCOC(=O)C(=NO)C1=Nc2ccc(Cl)cc2C(c2ccccc2Cl)=NC1  219 to 221 °C
4                 CCCC(=O)c1c[nH]c(=O)[nH]1  268 to 270 °C
5  CN1CCN(C2=Nc3cc(C(F)(F)F)ccc3N3CCc4cccc2c43)CC1  177 to 180 °C
6    CC(C)(C)OC(=O)NCC1(O)CCN(Cc2ccccc2)CC1  109 to 112 °C
7  CCc1nc2c(cnn2CC)c(NC2CCOCC2)c1CNC(=O)c1cccc(C(=O)NCc2ccc(C)c(-c3cccc(CN4CCCN(C)CC4)c3)c2)c1  107 to 109 °C
8  CC1(C(=O)O)COc2ccccc2O1 (centres undefined)  125 to 130 °C
9  Cn1c(=S)n(C)c(=O)n(-c2cc(O)c(Cl)cc2F)c1=O  242 to 246 °C

###

# reported melting point; entries follow
value kind: melting point

> print(dat)
                                    compound         result
 1  c1ccc(C(=NOC(=NC2CCCCC2)NC2CCCCC2)c2ccccc2)cc1  104 to 107 °C
 2                 Clc1nc(Cl)nc(Oc2ccccc2)n1  113 to 114 °C
 3  CCOC(=O)C=C(NC(=O)Nc1cc(OC(C)C)c(Cl)cc1F)C(F)(F)F  144 to 146 °C
 4          CSc1cc(C(C)(C)C)c(O)c(C(=O)O)c1C  138 to 139 °C
 5  CCOc1cc(OC(C)C)ccc1-c1nc(-c2ccc(OC(C)C)cc2O)nc(-c2ccc(OC(C)C)cc2O)n1  163 to 167 °C
 6               C=CCOC(=O)CCCCCCCCCCCCCCCCC    35 to 36 °C
 7  COC(=O)C1=C(C)NC2=C(C(=O)OC2)C1c1cccc2nc(-c3ccccc3)sc12 (stereo not given)         275 °C
 8  CCN(CC)c1ccc(N(c2ccc(N(CC)CC)cc2)C2(c3ccc(N(C)C)cc3C)OC(=O)c3ccccc32)cc1 (stereo not given)    59 to 72 °C
 9         O=C(Nc1ccccc1)N(c1ccccc1)c1ccccc1         131 °C
10  Clc1ccc(Nc2nc3ccccc3c3[nH]c(C4CCCCCC4)nc23)cc1Cl  236 to 238 °C
11  O=C1[C@@H]2C[C@H](Oc3ccc(Br)cc3)CN2C(=O)N1c1cc(Cl)cc(Cl)c1         116 °C
12  Cc1cc(C(=O)N2CCC3(CC2)CSC2=C(O3)c3ccccc3C(=O)C2=O)n(C)n1  244 to 245 °C
13  CC(C)(C)OC(=O)CN(Cc1cc(C(F)(F)F)cc(C(F)(F)F)c1)Cc1cc2ccccc2nc1Cl          84 °C
14              O=C(Cc1cccnc1)c1ccc(Cl)cc1Cl    55 to 56 °C
15              O=S(=O)(Cl)c1cc2c(Br)cccc2o1        87.2 °C
